# credit: patent US20220064322A1

Target: human CD73 on the cell surface (293T/17-huCD73 cells) (human) (UniProt P21589)
Sequence (P21589 27-549): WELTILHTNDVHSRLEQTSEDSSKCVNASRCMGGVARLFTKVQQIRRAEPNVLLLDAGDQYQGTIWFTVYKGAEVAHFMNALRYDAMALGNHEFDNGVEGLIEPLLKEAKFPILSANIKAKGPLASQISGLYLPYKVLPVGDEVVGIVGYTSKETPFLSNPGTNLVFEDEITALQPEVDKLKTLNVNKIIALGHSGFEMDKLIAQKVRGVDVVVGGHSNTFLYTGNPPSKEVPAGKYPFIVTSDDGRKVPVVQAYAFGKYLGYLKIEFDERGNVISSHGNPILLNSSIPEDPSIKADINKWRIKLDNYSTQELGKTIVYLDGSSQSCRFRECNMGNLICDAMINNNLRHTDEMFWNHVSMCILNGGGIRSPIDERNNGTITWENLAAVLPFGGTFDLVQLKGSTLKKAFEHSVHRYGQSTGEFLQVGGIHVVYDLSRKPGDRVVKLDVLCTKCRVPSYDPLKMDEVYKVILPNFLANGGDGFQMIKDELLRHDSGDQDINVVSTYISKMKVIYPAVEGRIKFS
Assay: cell-based or functional assay
reported-endpoint: EC50, release of IFN-γ from CD4+ T cells (ELISA of supernatant) (pM)
Quick reminder: number only, in pM, skip the unit.

Solved cases (2 shown):
>>> endpoint_value("JB24Chi (antibody, human IgG1, kappa, V domains shown) VH: QVQLQQSGLELVKPGASVKMSCKASGYTFTDYNMHWVKQSHGKSLEWIGYIKPHNGGTTYNPKFEGKATLTVNKSSSTAYMELRSLTSEDSAVYYCVRCDFLYWYFDVWGTGTTVTVSS VL: DIVMTQSPAIMSASLGERVTMTCTASSSVSSSYLHWYQQKPGSSPKLWIYSTSNLASGVPGRFSGSGSGTSYSLTISSMEAEDAATYYCHQYHRSPLTFGAGTKLEMKR")
6
>>> endpoint_value("JB24H2L1 (antibody, human IgG1, kappa, V domains shown) VH: QVQLVQSGAEVKKPGASVKMSCKASGYTFTDYNMHWVRQSPGKSLEWIGYIKPHNAGTTYNPKFEGRATLTVDTSASTAYMELSSLRSEDTAVYYCVRSDFLYWYFDVWGQGTTVTVSS VL: DIQMTQSPSSLSASVGDRVTITCTASSSVSSSYLHWYQQKPGKAPKLLIYSTSNLASGVPSRFSGSGSGTDFTLTISSLQPEDFATYYCHQYHRSPLTFGAGTKLEIKR")
2

Shifting focus to the binder that follows.
q: Reported EC50, release of IFN-γ from CD4+ T cells (ELISA of supernatant), binder JB94H3L3 (antibody, human IgG1, kappa, V domains shown) VH: QVQLQQSGAEVKKPGASVKLSCKASGYTFTSYWMHWVRQRPGQGLEWIGYINPSSGYTKSNQKFKDRATLTADTSTSTAYMELSSLRSEDTAVYYCGRWLLSAWFAYWGQGTLVTVSS VL: DIQMTQSPSSLSASVGDRVTITCKASQDINTYLSWFQQKPGKSPKSLIYRSNILVDGVPSRFSGSGSGQDYTLTISSLQPEDFAIYYCLQYDDFPYTFGQGTKLEIKR : ____
a: 3
